Reference source: patent US8871749B2

System: MC3T3-E1 cells
run description: Alkaline phosphatase (ALP) activity of osteoblasts
Assay type: cell-based
measurement parameters: Mus musculus, 168 h, compound 5 μg/ml, 7 days, relative to negative control (100)
Hi! Could you tag entries with activity at 5 µg/mL below 200% as yes, and those at or above as no? Much appreciated.

molecule: O=C(O)c1cc(O)ccc1O [NP23, 2,5-dihydroxybenzoic acid]
classification: yes
--
molecule: CCOC(=O)c1c(O)cccc1O [NP36, ethyl 2,6-dihydroxybenzoate]
classification: yes
--
molecule: O=C(O)c1cc(O)cc(O)c1 [NP32, 3,5-dihydroxybenzoic acid]
classification: yes
--
molecule: CCOC(=O)c1ccc(O)cc1O [NP33, ethyl 2,4-dihydroxybenzoate]
classification: no
--
molecule: COC(=O)c1ccc(O)cc1O [NP34, methyl 2,4-dihydroxybenzoate]
classification: yes
